assayed.target: T1, mouse DLL4 expressed on CHO cells (mouse, UniProt Q9JI71 27-686)
T1 construct: whole, on cells; also called mDLL4; CHO-mDLL4
T1 sequence (Q9JI71 27-686): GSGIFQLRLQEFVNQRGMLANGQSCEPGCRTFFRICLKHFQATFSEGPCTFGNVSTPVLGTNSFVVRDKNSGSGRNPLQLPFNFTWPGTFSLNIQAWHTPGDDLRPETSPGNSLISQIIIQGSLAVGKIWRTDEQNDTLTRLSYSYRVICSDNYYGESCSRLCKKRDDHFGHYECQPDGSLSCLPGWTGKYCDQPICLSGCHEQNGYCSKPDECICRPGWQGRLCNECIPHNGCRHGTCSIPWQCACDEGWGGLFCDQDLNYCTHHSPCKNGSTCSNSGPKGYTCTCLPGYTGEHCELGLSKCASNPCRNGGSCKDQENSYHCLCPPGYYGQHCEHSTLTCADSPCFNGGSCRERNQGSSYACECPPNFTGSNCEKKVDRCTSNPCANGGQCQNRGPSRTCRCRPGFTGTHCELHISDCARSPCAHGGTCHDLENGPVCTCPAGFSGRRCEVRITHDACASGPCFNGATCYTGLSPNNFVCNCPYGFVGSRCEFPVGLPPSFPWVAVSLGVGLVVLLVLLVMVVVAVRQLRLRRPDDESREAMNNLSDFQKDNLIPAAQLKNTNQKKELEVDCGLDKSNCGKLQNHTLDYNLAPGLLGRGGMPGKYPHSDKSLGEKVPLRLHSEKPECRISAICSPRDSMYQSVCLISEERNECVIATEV
assay.explanation: competition FMAT, labelled hNotch1-Fc on CHO-mDLL4 cells
observable: pIC50
# log scale: pIC50 equals minus log10 of the concentration in mol/L

In: # input binder: DLLBII136C07 (VHH, not shown: small tags and cut ends) VHH: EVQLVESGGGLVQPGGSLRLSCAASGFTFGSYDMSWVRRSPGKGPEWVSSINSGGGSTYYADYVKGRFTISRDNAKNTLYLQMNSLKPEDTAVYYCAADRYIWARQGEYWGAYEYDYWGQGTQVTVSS ; wanted: its pIC50
Out: 7.51

In: Fill in: pIC50 of DLLBII129B05 (VHH, not shown: small tags and cut ends) VHH: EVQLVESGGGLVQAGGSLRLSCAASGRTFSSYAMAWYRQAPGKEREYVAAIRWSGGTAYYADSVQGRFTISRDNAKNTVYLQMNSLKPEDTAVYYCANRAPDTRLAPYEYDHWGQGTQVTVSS is ___
Out: 7.84

In: Fill in the blank: the reported pIC50 of DLLBII129D08 (VHH, not shown: small tags and cut ends) VHH: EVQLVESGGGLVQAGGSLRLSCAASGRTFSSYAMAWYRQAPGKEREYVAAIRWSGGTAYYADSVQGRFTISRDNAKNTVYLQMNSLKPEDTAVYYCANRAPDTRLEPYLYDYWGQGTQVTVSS is ____.
Out: 7.96

In: Quick check: pIC50 of DLLBII129E11 (VHH, not shown: small tags and cut ends) VHH: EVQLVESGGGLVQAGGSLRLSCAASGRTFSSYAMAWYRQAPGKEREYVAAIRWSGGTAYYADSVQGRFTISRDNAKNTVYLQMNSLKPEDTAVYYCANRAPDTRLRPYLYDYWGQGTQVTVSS ?
Out: 7.91
